- SYSTEM: Recombinant Human Aromatase (HA) (Homo sapiens)
- Sequence (P11511 whole entry): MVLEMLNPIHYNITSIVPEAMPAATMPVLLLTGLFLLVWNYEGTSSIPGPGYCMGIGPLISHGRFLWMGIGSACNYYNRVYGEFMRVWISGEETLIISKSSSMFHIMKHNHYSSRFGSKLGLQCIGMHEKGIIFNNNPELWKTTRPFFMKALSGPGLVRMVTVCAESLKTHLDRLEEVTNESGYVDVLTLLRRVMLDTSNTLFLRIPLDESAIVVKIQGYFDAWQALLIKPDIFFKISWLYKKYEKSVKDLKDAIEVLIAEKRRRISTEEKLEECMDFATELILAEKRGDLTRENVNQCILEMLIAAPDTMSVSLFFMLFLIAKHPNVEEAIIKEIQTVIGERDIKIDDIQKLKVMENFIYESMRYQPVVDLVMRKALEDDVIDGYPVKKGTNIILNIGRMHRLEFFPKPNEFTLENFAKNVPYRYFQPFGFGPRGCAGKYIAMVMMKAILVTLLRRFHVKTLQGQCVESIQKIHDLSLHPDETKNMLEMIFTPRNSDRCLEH
- EXPERIMENTAL PROTOCOL: HA inhibition assay (Aromatase Inhibitor Screening Kit, fluorogenic substrate)
- Assay type: biochemical
- DETAILS: tested at 200-0.1 µM, triplicate; read-out: HA IC50
pIC50: −log10 of the molar value.
Listed next: entries and their corresponding pIC50.

{"columns": ["COMPOUND", "REPORTED RELATION", "pIC50"],
 "data": [
  ["CC1=CC(=O)CC(C)(C)[C@@]1(O)/C=C/C(C)=C\\C(=O)O [Abscisic acid]", "<", 4.00],
  ["C[C@@H]1O[C@@H](OC[C@H]2O[C@@H](Oc3c(-c4ccc(O)c(O)c4)oc4cc(O)cc(O)c4c3=O)[C@H](O)[C@@H](O)[C@@H]2O)[C@H](O)[C@H](O)[C@H]1O", "<", 4.00],
  ["COc1ccc(-c2cc(=O)c3c(OC)c(OC)c(OC)c(OC)c3o2)cc1", "<", 4.00],
  ["COc1ccc2cc3[n+](cc2c1OC)CCc1cc2c(cc1-3)OCO2", "=", 4.67],
  ["Cc1coc2c1C(=O)C(=O)c1c-2ccc2c1CCCC2(C)C", "=", 4.37],
  ["CC(C)=CCc1c2c(c3occ(-c4ccc(O)c(O)c4)c(=O)c3c1O)C=CC(C)(C)O2", "=", 4.82]
]}

* * *

- System: MDA-MB-231 (ER-) cells
- EXPERIMENTAL PROTOCOL: Antiproliferative assay, MDA-MB-231
- Assay type: cell-based
- DETAILS: 72 h; read-out: MDA-MB-231 IC50
pIC50: −log10 of the molar value.

{"columns": ["MOLECULE", "pIC50"],
 "data": [
  ["Cc1coc2c1C(=O)C(=O)c1c-2ccc2c1CCCC2(C)C [Tanshinone IIA]", 5.43]
]}

* * *

- System: MDA-MB-231 (ER-) cells
- EXPERIMENTAL PROTOCOL: Antiproliferative assay, MDA-MB-231
- Type: cell-based
- DETAILS: Homo sapiens, MDA-MB-231, 72 h, 72 h; read-out: MDA-MB-231 IC50
Listed next: entries and their corresponding IC50.
RECORDED METRIC: IC50

{"columns": ["MOLECULE", "RECORDED METRIC", "REPORTED RESULT"],
 "data": [
  ["N#Cc1ccc(C(c2ccc(C#N)cc2)n2cncn2)cc1 [Letrozole, reference compound]", "IC50", "41.3 µM"],
  ["Cc1coc2c1C(=O)C(=O)c1c-2ccc2c1CCCC2(C)C", "IC50", "~2.1 µM"],
  ["COc1ccc2cc3[n+](cc2c1OC)CCc1cc2c(cc1-3)OCO2", "IC50", "> 100 µM"],
  ["C[C@@H]1O[C@@H](OC[C@H]2O[C@@H](Oc3c(-c4ccc(O)c(O)c4)oc4cc(O)cc(O)c4c3=O)[C@H](O)[C@@H](O)[C@@H]2O)[C@H](O)[C@H](O)[C@H]1O", "IC50", "> 100 µM"]
]}

* * *

Listed next: entries and their corresponding IC50.
- System: MDA-MB-231 (ER-) cells
- EXPERIMENTAL PROTOCOL: Antiproliferative assay, MDA-MB-231
- Format: cell-based
- DETAILS: Homo sapiens, MDA-MB-231, 72 h, 72 h; read-out: MDA-MB-231 IC50

{"columns": ["MOLECULE", "IC50"],
 "data": [
  ["O=c1cc(-c2ccccc2)oc2cc(O)cc(O)c12", "65 µM"],
  ["COc1ccc(-c2cc(=O)c3c(OC)c(OC)c(OC)c(OC)c3o2)cc1", "45.6 µM"],
  ["CC(C)=CCc1c2c(c3occ(-c4ccc(O)c(O)c4)c(=O)c3c1O)C=CC(C)(C)O2", "30.9 µM"],
  ["Oc1ccc(/C=C/c2cc(O)cc(O)c2)cc1", "38 µM"]
]}

Attribution: paper PMC8759730
